Target: CD3 (antibody antigen coated on the ELISA plate in Examples 1 to 3) (Homo sapiens (Human)) (UniProt P07766)
Sequence (P07766 23-126 limits assumed): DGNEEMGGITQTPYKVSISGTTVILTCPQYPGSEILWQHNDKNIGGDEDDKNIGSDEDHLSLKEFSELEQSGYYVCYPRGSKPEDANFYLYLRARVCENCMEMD
Experiment: binding activity of the conjugated mutant compared with the wild-type antibody (ELISA as in Example 1)
Assay Endpoint: Blocking fold after conjugation (+20K) (fold)
Give your result in fold as a bare value.

# Binder, Assay Endpoint, Value Reported
data = [
    ("anti-CD3 antibody mutant VL-R56C conjugated with Molecule I (+20K) (antibody, V domains shown, Molecule I (+20K, shown only as a drawing) conjugated on Cys 56) VH: EVQLVESGGGLVQPGGSLRLSCAASGFTFSTYAMNWVRQAPGKGLEWVGRIRSKYNNYATYYADSVKDRFTISRDDSKNSLYLQMNSLKTEDTAVYYCARHGNFGNSYVSWFAYWGQGTLVTVSS VL: QTVVTQEPSLTVSPGGTVTLTCRSSTGAVTTSNYANWVQQKPGQAPRGLIGGTNKCAPGVPARFSGSLLGDKAALTLLGAQPEDEAEYFCALWYSNLWVFGGGTKLTVL", "Blocking fold after conjugation (+20K)", 6),
    ("anti-CD3 antibody mutant VH-F104C conjugated with Molecule I (+20K) (antibody, V domains shown, Molecule I (+20K, shown only as a drawing) conjugated on Cys 104) VH: EVQLVESGGGLVQPGGSLRLSCAASGFTFSTYAMNWVRQAPGKGLEWVGRIRSKYNNYATYYADSVKDRFTISRDDSKNSLYLQMNSLKTEDTAVYYCARHGNCGNSYVSWFAYWGQGTLVTVSS VL: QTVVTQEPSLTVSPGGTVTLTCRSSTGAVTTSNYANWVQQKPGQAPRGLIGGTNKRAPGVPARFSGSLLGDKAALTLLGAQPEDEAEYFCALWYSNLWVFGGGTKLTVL", "Blocking fold after conjugation (+20K)", 13),
]

Next:
Q: Entry anti-CD3 antibody mutant VL-N96C conjugated with Molecule I (+20K) (antibody, V domains shown, Molecule I (+20K, shown only as a drawing) conjugated on Cys 96) VH: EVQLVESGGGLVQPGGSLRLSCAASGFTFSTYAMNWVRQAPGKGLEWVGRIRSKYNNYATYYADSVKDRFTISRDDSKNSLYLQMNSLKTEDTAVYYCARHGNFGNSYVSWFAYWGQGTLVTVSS VL: QTVVTQEPSLTVSPGGTVTLTCRSSTGAVTTSNYANWVQQKPGQAPRGLIGGTNKRAPGVPARFSGSLLGDKAALTLLGAQPEDEAEYFCALWYSCLWVFGGGTKLTVL has what Blocking fold after conjugation (+20K)?
Ans: 2
